B1: F-BAR and double SH3 domains protein 1, residues 467 to 528; numbered along this chain, Q86WN1 (parent)
chain: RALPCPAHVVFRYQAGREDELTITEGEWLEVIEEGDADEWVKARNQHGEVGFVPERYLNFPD

# Variants of: B1
# ASSAY_SUMMARY: abundance fitness (aPCA) (normalised: wild type 0, dead -1); higher = more abundant; growth selection in yeast, the domain comes from the species named
# RUN_CONDITIONS: Homo sapiens
Quick rule for you: abundance fitness at -0.1 or higher means Satisfied, lower means Not satisfied.

VARIANT_DESCRIPTOR	LABEL_VALUE
E27R	Not satisfied

query: Threshold query (abundance fitness >= -0.1) on `G16Q`
result: Satisfied

query: # bool: abundance fitness of `R12T` >= -0.1
result: Satisfied

query: Say whether `T24D` shows abundance fitness of -0.1 or more.
result: Satisfied

query: Please tell me: is the variant `I23Y` at or over -0.1 in terms of abundance fitness?
result: Not satisfied

query: Please tell me: is the variant `K42W` at or over -0.1 in terms of abundance fitness?
result: Not satisfied

query: Is reported abundance fitness greater than or equal to -0.1 here: `P6K`
result: Not satisfied

query: Please indicate if the recorded abundance fitness for `E20R` meets or exceeds -0.1.
result: Not satisfied

query: In plain terms: is recorded abundance fitness at least -0.1 for `T22M` ?
result: Not satisfied

query: Does `K42C` have a reported abundance fitness of at least -0.1?
result: Not satisfied

query: Item `T24L` with abundance fitness of -0.1 or above?
result: Satisfied

query: Confirm if abundance fitness reported for the variant `A37I` is -0.1 or above.
result: Satisfied

query: In plain terms: is recorded abundance fitness at least -0.1 for `I32G` ?
result: Not satisfied

query: Identify whether the reported abundance fitness of the following variant is -0.1 or greater: `E33V`
result: Not satisfied
